assay: plasmodial surface anion channel blockers, osmotic lysis – cell-based, P. falciparum Indochina, OD700, 1 h, primary screen (AID 1154); conditions: P. falciparum Indochina infected RBC osmotic lysis, called active from +8 up or from −8 down
Calls of active or inactive are those of the source.
Outcomes: active, inactive

> print(dat)
                                   compound  class.assignment
1  CN1C2C=C(CCCO)C(C3C(=O)N(C(N)=O)C(=O)C32)C1C1CC1 (centres undefined)          inactive
2  CC(C)C(CO)N1C(=O)[C@@H]2C3C(=O)OCCC/C=C\[C@H]3OC23C=CCN(c2ccc4ccccc4c2)C(=O)[C@@H]13 (some centres undefined)          inactive
3  [N-]=[N+]=Nc1ccccc1[C@@H]1OC(c2ccc(OCCCO)cc2)=N[C@]1(Cc1ccccc1)C(=O)O            active
4  COc1ccc([Si](C)(C)[C@@H]2[C@@H](CCO)O[C@]3(C(=O)N(Cc4ccccc4)c4ccc(NC(=O)[C@H](C)O)cc43)[C@H]2C)cc1            active
